# test.target: recombinant human baculovirus-expressed GST-tagged FASN (Homo sapiens, UniProt P49327)
# Construct: GST
# Sequence (P49327 whole entry): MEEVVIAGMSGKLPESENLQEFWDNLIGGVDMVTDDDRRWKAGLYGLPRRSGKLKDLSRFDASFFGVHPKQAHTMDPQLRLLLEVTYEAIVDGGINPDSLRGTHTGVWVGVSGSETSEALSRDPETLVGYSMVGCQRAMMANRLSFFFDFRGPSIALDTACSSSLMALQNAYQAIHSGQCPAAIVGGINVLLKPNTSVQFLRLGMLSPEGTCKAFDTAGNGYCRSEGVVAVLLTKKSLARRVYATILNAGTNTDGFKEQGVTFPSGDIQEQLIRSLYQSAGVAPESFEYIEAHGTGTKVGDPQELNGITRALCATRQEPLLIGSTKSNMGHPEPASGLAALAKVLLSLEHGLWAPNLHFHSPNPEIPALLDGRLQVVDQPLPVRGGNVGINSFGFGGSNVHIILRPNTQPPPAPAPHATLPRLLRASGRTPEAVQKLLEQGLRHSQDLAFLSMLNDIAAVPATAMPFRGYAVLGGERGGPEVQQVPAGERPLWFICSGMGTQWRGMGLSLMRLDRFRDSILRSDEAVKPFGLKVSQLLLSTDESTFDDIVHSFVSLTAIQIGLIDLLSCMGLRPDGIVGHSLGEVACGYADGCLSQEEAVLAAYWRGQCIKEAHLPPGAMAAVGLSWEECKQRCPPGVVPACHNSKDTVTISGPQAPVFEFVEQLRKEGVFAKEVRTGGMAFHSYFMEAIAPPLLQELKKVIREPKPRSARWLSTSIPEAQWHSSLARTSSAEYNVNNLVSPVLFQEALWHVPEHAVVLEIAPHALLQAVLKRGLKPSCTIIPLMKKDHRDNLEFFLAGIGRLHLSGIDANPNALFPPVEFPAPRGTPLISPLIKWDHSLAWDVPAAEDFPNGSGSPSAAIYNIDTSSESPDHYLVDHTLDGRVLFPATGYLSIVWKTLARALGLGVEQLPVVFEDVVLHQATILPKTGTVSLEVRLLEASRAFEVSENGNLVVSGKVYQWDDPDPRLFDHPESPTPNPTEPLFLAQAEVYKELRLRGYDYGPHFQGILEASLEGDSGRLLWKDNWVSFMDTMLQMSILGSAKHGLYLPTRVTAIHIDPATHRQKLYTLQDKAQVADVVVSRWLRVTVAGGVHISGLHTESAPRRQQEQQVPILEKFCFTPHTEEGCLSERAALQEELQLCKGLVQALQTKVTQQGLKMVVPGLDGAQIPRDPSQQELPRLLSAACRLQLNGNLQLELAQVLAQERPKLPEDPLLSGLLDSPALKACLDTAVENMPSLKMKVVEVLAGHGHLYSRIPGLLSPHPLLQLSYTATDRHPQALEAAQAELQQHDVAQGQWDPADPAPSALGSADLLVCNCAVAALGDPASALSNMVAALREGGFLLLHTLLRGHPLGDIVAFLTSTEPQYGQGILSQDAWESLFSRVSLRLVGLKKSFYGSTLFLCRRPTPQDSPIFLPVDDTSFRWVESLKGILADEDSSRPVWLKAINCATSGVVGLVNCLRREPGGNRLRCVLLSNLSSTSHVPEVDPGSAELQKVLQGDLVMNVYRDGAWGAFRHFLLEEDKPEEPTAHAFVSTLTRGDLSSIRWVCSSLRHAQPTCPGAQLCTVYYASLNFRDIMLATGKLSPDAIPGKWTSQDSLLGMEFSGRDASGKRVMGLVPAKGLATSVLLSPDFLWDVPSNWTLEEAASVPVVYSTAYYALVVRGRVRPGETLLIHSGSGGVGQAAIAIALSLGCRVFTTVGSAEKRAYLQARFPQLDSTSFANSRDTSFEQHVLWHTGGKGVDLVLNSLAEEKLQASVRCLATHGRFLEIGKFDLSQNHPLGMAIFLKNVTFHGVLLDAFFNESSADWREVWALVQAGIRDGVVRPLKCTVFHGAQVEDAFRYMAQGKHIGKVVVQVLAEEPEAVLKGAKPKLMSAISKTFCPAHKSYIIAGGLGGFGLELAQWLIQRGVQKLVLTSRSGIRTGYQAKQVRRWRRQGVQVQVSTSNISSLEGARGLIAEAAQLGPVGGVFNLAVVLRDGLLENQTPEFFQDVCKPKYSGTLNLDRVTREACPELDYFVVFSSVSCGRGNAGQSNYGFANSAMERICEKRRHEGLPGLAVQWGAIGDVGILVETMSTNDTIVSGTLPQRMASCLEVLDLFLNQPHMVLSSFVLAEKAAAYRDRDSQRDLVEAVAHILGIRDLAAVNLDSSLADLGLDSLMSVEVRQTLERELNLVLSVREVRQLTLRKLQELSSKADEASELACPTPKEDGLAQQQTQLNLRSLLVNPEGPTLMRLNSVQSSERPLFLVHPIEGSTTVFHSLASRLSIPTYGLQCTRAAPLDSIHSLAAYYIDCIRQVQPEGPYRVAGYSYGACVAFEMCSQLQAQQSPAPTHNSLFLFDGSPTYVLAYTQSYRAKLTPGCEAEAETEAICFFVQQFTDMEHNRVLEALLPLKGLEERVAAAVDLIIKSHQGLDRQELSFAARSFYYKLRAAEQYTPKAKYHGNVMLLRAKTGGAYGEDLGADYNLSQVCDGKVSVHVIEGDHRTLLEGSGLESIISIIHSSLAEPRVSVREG
# test.protocol: FASN enzyme activity assay, fluorescence-based detection of CoA with CPM
# Type: biochemical
# settings: 5 nM FASN, 150 μM NADPH, 10 μM acetyl-CoA, 25 μM malonyl-CoA, 90 minutes incubation; read-out: IC50 data for Compounds of Formulae I-V/V(a): Activity
Counter-ions that a name gives are not always drawn.
value.type: IC50

Request: Field request: IC50 | item: CC(C)C(=O)N1CCC(Oc2ccc(-c3ccc4cccnc4c3)cn2)CC1 [Example 136, HCl]
Response: 1000 to 10000 nM

Request: Form field: reported IC50 of Cc1c(-c2ccc(O[C@@H]3CCN(C(=O)C4CC4)C[C@H]3F)cc2)ccc2cccnc12 (relative stereo) [Example 374, HCl]
Response: 100 to 999 nM

Request: Find the recorded IC50 belonging to Cn1ncc2ccc(-c3ccc(OC4CCN(C(=O)C5CC5)CC4)cc3)cc21 [Example 270, TFA salt] and report it.
Response: 100 to 999 nM

Request: Please give the measured IC50 for this compound: CCC(=O)N1CCC(Oc2ccc(-c3ccc4cccnc4c3C)cc2)CC1C (mixture of isomers) [Example 363, HCl]
Response: 100 to 999 nM

Request: If you can, please state the reported IC50 value of `COc1c(-c2ccc(OC3CCN(C(=O)[C@H]4CCCO4)CC3)c(F)c2)ccc2cccnc12` .
Response: 1 to 99 nM

Request: Consider the compound shown here: `O=C(C1CC1)N1CC(Oc2ccc(-c3cnc4ccccc4c3)cc2)C1` What is its recorded IC50?
Response: 1000 to 10000 nM

Request: I am curious: what IC50 value has been reported for `CCC(=O)N1CCC(Oc2ccc(-c3cnc4ccccc4c3)cc2F)CC1` ?
Response: 1 to 99 nM

Request: So what's the measured IC50 for this one? Cc1cc(C)c(C(=O)N2CCC(Oc3ccc(-c4cnc5ccccc5c4)cc3)CC2)o1 [Example 122, HCl]
Response: 1000 to 10000 nM

Request: Query (compound): O=C(C1CCC1)N1CCC(Oc2ccc(-c3cccc(-c4ccccn4)c3F)cc2)CC1 [Example 398, HCl] ; field requested: IC50
Response: 1000 to 10000 nM

Request: // returns reported IC50 for input `Cc1ccc2cc(-c3ccc(OC4CCN(C(=O)N5CCCO5)CC4)cc3)cnc2c1`
Response: 1 to 99 nM

Request: # input compound: `CCC(=O)N1CCC(Oc2ccc(-c3cnc4cc(OC)c(Cl)cc4c3)cc2)CC1` ; wanted: its IC50
Response: 1000 to 10000 nM

Request: Fill in the blank: the reported IC50 of Cc1ccc2ncc(-c3ccc(OC4CCN(C(=O)C5CC5)CC4)cc3)cc2c1 [Example 484, HCl] is ____.
Response: 100 to 999 nM

Request: Recorded IC50 of `CO[C@H](C)C(=O)N1CCC(Oc2ccc(-c3cnc4ccccc4c3)cc2)CC1` , please.
Response: 100 to 999 nM

Request: # lookup: IC50 of `CCC(=O)N1CCC(Oc2ccc(-c3cnc4ccccc4c3)nc2)CC1`
Response: 1000 to 10000 nM

Request: Query (compound): `CCC(=O)N1CCC(Oc2ccc(-c3cnc4[nH]ccc4c3)cc2)CC1` ; field requested: IC50
Response: 100 to 999 nM

Request: Give its IC50 value. Item: `Cc1c(-c2ccc(OC3CCN(C(=O)N4CCCC4)CC3)cc2)ccc2cccnc12`
Response: 1 to 99 nM

Request: Record request: IC50 value, item `CCC(=O)N1CCC(Oc2ccc(-c3cnc4cccnc4c3)cc2)CC1`
Response: 1000 to 10000 nM
